All figures here come from patent US8431596B2.

- Target or system: AXL (human catalytic domain) (Homo sapiens)
- Construct: purchased Upstate Ltd. 14-512
- Sequence (P30530 473-894): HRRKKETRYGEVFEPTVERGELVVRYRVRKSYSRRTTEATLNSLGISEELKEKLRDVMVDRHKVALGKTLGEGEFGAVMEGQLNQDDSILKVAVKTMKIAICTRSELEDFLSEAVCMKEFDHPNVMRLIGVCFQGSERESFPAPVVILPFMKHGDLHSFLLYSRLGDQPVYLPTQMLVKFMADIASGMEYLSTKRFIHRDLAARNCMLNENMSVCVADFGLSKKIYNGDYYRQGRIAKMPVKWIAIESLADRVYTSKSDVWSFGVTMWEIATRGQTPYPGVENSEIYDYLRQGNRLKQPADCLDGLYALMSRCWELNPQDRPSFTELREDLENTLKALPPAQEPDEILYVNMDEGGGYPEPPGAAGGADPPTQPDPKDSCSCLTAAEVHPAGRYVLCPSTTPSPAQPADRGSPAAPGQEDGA
- Assay procedure: AXL (human catalytic domain) Enzyme Activity Assay (IMAP fluorescence polarisation)
- Type: biochemical
- Study conditions: first data set; recombinant AXL isoform 1 aa473-894, 150 μM ATP
Measured parameter: IC50

Known results for molecules:
CNCCOc1cccc(Nc2nc3cccc(-c4ccc5c(c4)OCCO5)n3n2)c1 [XX-081] | < 1000 nM
COc1ccc(-c2cccc3nc(NC(=O)C4CC4)nn23)cn1 [WW-006] | 1000 to 10000 nM
O=C(Nc1nc2cccc(NCCc3c[nH]c4ccccc34)n2n1)C1CC1 [WW-077] | 1000 to 10000 nM
CCN(CC)CCOc1ccc(Nc2nc3cccc(-c4ccc5c(c4)OCCO5)n3n2)cc1 [XX-075] | < 1000 nM
O=C(Nc1nc2cccc(NCc3ccccn3)n2n1)C1CC1 [WW-075] | 1000 to 10000 nM

Annotate the molecule CN(C)c1ccc(-c2cccc3nc(NC(=O)C4CC4)nn23)cn1 [WW-036] with its measured IC50. 1000 to 10000 nM

Identify measured IC50 corresponding to O=C(Nc1nc2cccc(-c3cccc(CO)c3)n2n1)C1CC1 [WW-028] 1000 to 10000 nM

Could you please provide reported IC50 for CNCCCOc1ccc(Nc2nc3cccc(-c4ccc(OC)cc4)n3n2)cc1 [XX-040] ? Thanks! < 1000 nM

Give the reported IC50 for this molecule. O=C(Nc1nc2cccc(-c3ccc(OCC4CC4)cc3)n2n1)C1CC1 [WW-121] 1000 to 10000 nM

Give me measured IC50, please, for this molecule: O=C(Nc1nc2cccc(-c3ccccc3O)n2n1)C1CC1 [WW-037] 1000 to 10000 nM

====

- Target or system: AXL (human catalytic domain) (Homo sapiens, UniProt P30530)
- Construct: purchased Upstate Ltd. 14-512
- Assay procedure: AXL (human catalytic domain) Enzyme Activity Assay (IMAP fluorescence polarisation)
- Type: biochemical
- Study conditions: further data set (WW-001 through WW-169, XX-001 through XX-469, YY-001 through YY-016, ZZ-001 through ZZ-003); 150 μM ATP
Measured parameter: IC50

# count of solved cases: 8
Cn1ccc2cc(-c3cccc4nc(Nc5ccc(OCCN6CCCC6)cc5)nn34)ccc21 | 0.1 to 1 µM
CS(=O)(=O)c1ccc(-c2cccc3nc(Nc4ccc(OCCN5CCCC5)cc4)nn23)cc1 | 0.1 to 1 µM
COc1ccc(-c2cccc3nc(Nc4ccc(OCCN(C)Cc5ccccc5)cc4)nn23)cc1 | 0.1 to 1 µM
CNCCOc1cccc(Nc2nc3cccc(-c4ccc5c(c4)OCO5)n3n2)c1 | 0.1 to 1 µM
CS(=O)(=O)OCCn1cc(-c2cccc3nc(Nc4ccc(OCCN5CCCC5)cc4)nn23)cn1 | 0.1 to 1 µM
Cc1cc(-c2cccc3nc(NC(=O)C4CC4)nn23)ccn1 | 1 to 10 µM
Cc1nn(C)c(C)c1-c1cccc(-c2cccc3nc(Nc4ccc(OCCN5CCCC5)cc4)nn23)c1 | 0.1 to 1 µM
CN(C)c1ccc(-c2cccc3nc(NC(=O)C4CC4)nn23)cc1 | 0.1 to 1 µM

Specify measured IC50 for CC(C)(C)OC(=O)Nc1cccc(-c2cccc3nc(Nc4ccc(OCCN5CCCC5)cc4)nn23)c1 . 1 to 10 µM

Report IC50 for Cn1nccc1-c1ccc(-c2cccc3nc(Nc4ccc(OCCN5CCCC5)cc4)nn23)cc1 0.1 to 1 µM

Entry c1cc(NCc2nc3c(s2)CCCC3)cc(-c2cccc3nc(Nc4ccc(OCCN5CCCC5)cc4)nn23)c1 needs its IC50 filled in; supply it. 0.1 to 1 µM

Tell me measured IC50 for CC(CN)Oc1ccc(Nc2nc3cccc(-c4ccc5c(c4)OCCO5)n3n2)cc1 (centres unmarked) please. ≤ 0.1 µM

====

Each entry below carries its recorded IC50.
- Target or system: AXL (human catalytic domain) (Homo sapiens, UniProt P30530)
- Construct: purchased Upstate Ltd. 14-512
- Assay procedure: AXL (human catalytic domain) Enzyme Activity Assay (IMAP fluorescence polarisation)
- Format: biochemical
- Study conditions: further data set (WW-001 through WW-169, XX-001 through XX-469, YY-001 through YY-016, ZZ-001 through ZZ-003); 150 μM ATP

In the examples that follow, each entry is paired with its recorded IC50.
Cc1ccc(-c2cccc3nc(Nc4ccc(OCCN5CCCC5)cc4)nn23)cc1F [XX-280] | ≤ 100 nM
c1ccc(COc2cccc(-c3cccc4nc(Nc5ccc(OCCN6CCCC6)cc5)nn34)c2)cc1 [XX-278] | 100 to 1000 nM

In one line, give reported IC50 of the entry NCC(=O)Nc1ccc(-c2cccc3nc(NC(=O)C4CC4)nn23)cc1 [WW-155] . 1000 to 10000 nM

For the compound c1cc(-c2cnn(CCN3CCOCC3)c2)n2nc(Nc3ccc(OCCN4CCCC4)cc3)nc2c1 [XX-272] , report IC50. 1000 to 10000 nM

Provide only the value of recorded IC50 for c1cc(NCc2cncs2)cc(-c2cccc3nc(Nc4ccc(OCCN5CCCC5)cc4)nn23)c1 [XX-260] 1000 to 10000 nM

Provide one value: measured IC50 of CN(C)c1cccc(-c2cccc3nc(Nc4ccc(OCCN5CCCC5)cc4)nn23)c1 [XX-236] 100 to 1000 nM

Given the compound CCN(CC)CCOc1ccc(Nc2nc3cccc(-c4ccc(OC)cc4)n3n2)cc1F [XX-412] , write its reported IC50. 1000 to 10000 nM

Check the records and state IC50 for COc1cc(Nc2nc3cccc(-c4ccc5c(c4)OCCN5C)n3n2)ccc1OCCN1CCCC1 [XX-095] 100 to 1000 nM

Supply recorded IC50 for CCOc1ccc(-c2nccc3nc(Nc4ccc(OCCN5CCCC5)cc4)nn23)cc1 [YY-007] here. 100 to 1000 nM

====

- Target or system: AXL (human catalytic domain) (Homo sapiens)
- Construct: purchased Upstate Ltd. 14-512
- Assay procedure: AXL (human catalytic domain) Enzyme Activity Assay (IMAP fluorescence polarisation)
- Type: biochemical
- Study conditions: further data set (WW-001 through WW-169, XX-001 through XX-469, YY-001 through YY-016, ZZ-001 through ZZ-003); 150 μM ATP
Measured parameter: IC50

O=C(Nc1cccc(-c2cccc3nc(Nc4ccc(OCCN5CCCC5)cc4)nn23)c1)c1ccco1 | 0.1 to 1 µM

Determine reported IC50 for CCN(CC)CCNS(=O)(=O)c1ccc(Nc2nc3cccc(-c4ccc5c(c4)OCCO5)n3n2)cc1 ; test system: AXL (human catalytic domain) (Homo sapiens). 0.1 to 1 µM

Provide AXL (human catalytic domain) (Homo sapiens) IC50 reading for O=C(Nc1ccc(-c2cccc3nc(Nc4ccc(OCCN5CCCC5)cc4)nn23)cc1)c1cccc(Cl)c1 . 1 to 10 µM

====

- Target or system: AXL (human catalytic domain) (Homo sapiens)
- Construct: purchased Upstate Ltd. 14-512
- Assay procedure: AXL (human catalytic domain) Enzyme Activity Assay (IMAP fluorescence polarisation)
- Format: biochemical
- Study conditions: further data set (WW-001 through WW-169, XX-001 through XX-469, YY-001 through YY-016, ZZ-001 through ZZ-003); 150 μM ATP
IC50 for assorted compounds

Worked cases, answers included:
COCc1ccc(-c2cccc3nc(Nc4ccc(OCCN5CCCC5)cc4)nn23)cc1 | 100 to 1000 nM
Cc1ccc(CNc2ccc(-c3cccc4nc(Nc5ccc(OCCN6CCCC6)cc5)nn34)cc2)cc1 | 100 to 1000 nM
CCN(CC)CC(=O)Nc1cccc(Nc2nc3cccc(-c4ccc5c(c4)OCCO5)n3n2)c1 | 100 to 1000 nM
O=C(Nc1nc2cccc(NC3CCCC3)n2n1)C1CC1 | 1000 to 10000 nM
CCCS(=O)(=O)n1cc(-c2cccc3nc(Nc4ccc(OCCN5CCCC5)cc4)nn23)cn1 | ≤ 100 nM

Provide only the value of recorded IC50 for CC(C)NC(=O)Cn1cc(-c2cccc3nc(Nc4ccc(OCCN5CCCC5)cc4)nn23)cn1 1000 to 10000 nM

Write down IC50 measured for item COc1ccc(-c2cccc3nc(Nc4ccc(N)cc4)nn23)cc1 ≤ 100 nM
